# Test Target: Bcl-2 protein (Recombinant Human Bcl-2 Protein) (Homo sapiens, UniProt P10415)
# Construct: purchased Novus NBP2-34889
# Sequence (P10415 whole entry): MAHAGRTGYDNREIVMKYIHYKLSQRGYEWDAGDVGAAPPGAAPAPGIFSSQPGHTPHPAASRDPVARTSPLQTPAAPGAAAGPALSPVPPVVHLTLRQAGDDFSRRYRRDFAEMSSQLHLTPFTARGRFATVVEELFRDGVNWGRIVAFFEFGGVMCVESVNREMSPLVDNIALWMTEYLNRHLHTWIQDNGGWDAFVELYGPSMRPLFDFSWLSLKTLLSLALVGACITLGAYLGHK
# Assay Method Text: Binding evaluation of mixture library compounds to Bcl-2 using AS-MS (affinity selection mass spectrometry)
# Conditions Used: n = 1
Measured Property: ASMS ratio (%)

[[record]]
compound_structure = "CCOc1cncc(-c2cc(C(=O)N3CCN(c4ccc(C(=O)NS(=O)(=O)CCC(F)(F)F)cc4)CC3)cc(C(C)(C)C)c2)c1"
measured_property = "ASMS ratio (%)"
measured_number = 0.0

[[record]]
compound_structure = "CCOc1cncc(-c2cc(CN3CCN(c4ccc(C(=O)NS(=O)(=O)CCC(F)(F)F)cc4)CC3)cc(OCC)c2)c1"
measured_property = "ASMS ratio (%)"
measured_number = 0.0

[[record]]
compound_structure = "CCOc1cncc(-c2ccccc2CN2CCN(c3ccc(C(=O)NS(C)(=O)=O)cc3)CC2)c1"
measured_property = "ASMS ratio (%)"
measured_number = "−0.6"

[[record]]
compound_structure = "CCOc1cncc(-c2csc(C(=O)N3CCN(c4ccc(C(=O)NS(=O)(=O)CCC(F)(F)F)cc4)CC3)c2)c1"
measured_property = "ASMS ratio (%)"
measured_number = 0.0

[[record]]
compound_structure = "CCOc1cccc(-c2ccc(CN3CCN(c4ccc(C(=O)NS(=O)(=O)CCC(F)(F)F)cc4)CC3)cc2F)c1"
measured_property = "ASMS ratio (%)"
measured_number = 0.0

[[record]]
compound_structure = "CCOc1cccc(-c2cc(CN3CCN(c4ccc(C(=O)NS(C)(=O)=O)nn4)CC3)cc(C(F)(F)F)c2)c1"
measured_property = "ASMS ratio (%)"
measured_number = 1.3

[[record]]
compound_structure = "CCOc1cncc(C#Cc2cncc(C(=O)N3CCN(c4ccc(C(=O)NS(=O)(=O)c5ccc(NCCSc6ccccc6)c(C(F)(F)F)c5)cc4)CC3)c2)c1"
measured_property = "ASMS ratio (%)"
measured_number = 6.4


----------
Measured ASMS ratio (%) n = 1 of individual entries
# Test Target: Bcl-2 protein (Recombinant Human Bcl-2 Protein) (Homo sapiens)
# Construct: purchased Novus NBP2-34889
# Assay Method Text: Binding evaluation of mixture library compounds to Bcl-2 using AS-MS (affinity selection mass spectrometry)
# Conditions Used: AS-MS, mixture of 1200 compounds, Bcl-2; ASMS Ratio(%)=(A−C)/B×100; replicate n = 1
Measured Property: ASMS ratio (%) n = 1

[[record]]
compound_structure = "CCOc1cncc(-c2cc(C(=O)N3CCN(c4ccc(C(=O)NCC(F)(F)F)nn4)CC3)cc(C(F)(F)F)c2)c1"
measured_number = "−0.6"

[[record]]
compound_structure = "CCOc1cncc(-c2ccc(CN3CCN(c4ccc(C(=O)NCC(F)(F)F)cc4)CC3)cc2C)c1"
measured_number = 0.1

[[record]]
compound_structure = "CCOc1cncc(-c2ccccc2CCC(=O)N2CCN(c3ccc(C(=O)NCC(F)(F)F)nn3)CC2)c1"
measured_number = 0.0

[[record]]
compound_structure = "CCOc1cccc(-c2ccc(CN3CCN(c4ccc(C(=O)NCC56CC7CC(CC(C7)C5)C6)cc4)CC3)c(CC)c2)c1"
measured_number = 4.1

[[record]]
compound_structure = "CCOc1cncc(-c2cnn(-c3cc(C(=O)N4CCN(c5ccc(C(=O)NCC67CC8CC(CC(C8)C6)C7)cc5)CC4)cc(C(F)(F)F)c3)c2)c1"
measured_number = 2.6

[[record]]
compound_structure = "CCOc1cncc(C#Cc2ccccc2CN2CCN(c3ccc(C(=O)NCC(F)(F)F)cc3)CC2)c1"
measured_number = 0.0

[[record]]
compound_structure = "CCOc1cncc(-c2ccc(CN3CCN(c4ccc(C(=O)NCC56CC7CC(CC(C7)C5)C6)cc4)CC3)c3ccccc23)c1"
measured_number = 8.2


----------
# Test Target: Bcl-2 protein (Recombinant Human Bcl-2 Protein) (Homo sapiens, UniProt P10415)
# Construct: purchased Novus NBP2-34889
# Assay Method Text: Binding evaluation of mixture library compounds to Bcl-2 using AS-MS (affinity selection mass spectrometry)
# Conditions Used: n = 1
Measured Property: ASMS ratio (%)

[[record]]
compound = "CCOc1cncc(-c2ccc(CN3CCN(c4ccc(C(=O)NS(=O)(=O)CCC(F)(F)F)nn4)CC3)c(CC)c2)c1"
measured_property = "ASMS ratio (%)"
units_symbol = "%"
measured_number = 0.0

[[record]]
compound = "CCOc1cccc(-c2cnn(-c3cc(C(=O)N4CCN(c5ccc(C(=O)NS(=O)(=O)C(C)(C)C)nn5)CC4)cc(C(F)(F)F)c3)c2)c1"
measured_property = "ASMS ratio (%)"
units_symbol = "%"
measured_number = 0.0

[[record]]
compound = "CCOc1cccc(C#Cc2ccccc2CN2CCN(c3ccc(C(=O)NS(=O)(=O)C(C)(C)C)cc3)CC2)c1"
measured_property = "ASMS ratio (%)"
units_symbol = "%"
measured_number = 0.0

[[record]]
compound = "CCOc1cncc(-c2ccc(CN3CCN(c4ccc(C(=O)NS(=O)(=O)CCC(F)(F)F)cc4)CC3)cc2C)c1"
measured_property = "ASMS ratio (%)"
units_symbol = "%"
measured_number = 0.0

[[record]]
compound = "CCOc1cncc(-c2csc(CN3CCN(c4ccc(C(=O)NS(=O)(=O)C(C)(C)C)nn4)CC3)c2)c1"
measured_property = "ASMS ratio (%)"
units_symbol = "%"
measured_number = 0.2

[[record]]
compound = "CCOc1cncc(-c2ccc(C(=O)N3CCN(c4ccc(C(=O)NS(=O)(=O)CCC(F)(F)F)cc4)CC3)cc2C)c1"
measured_property = "ASMS ratio (%)"
units_symbol = "%"
measured_number = "−1.5"

[[record]]
compound = "CCOc1cncc(-c2ccc(CN3CCN(c4ccc(C(=O)NS(=O)(=O)C(C)(C)C)nn4)CC3)c(CC)c2)c1"
measured_property = "ASMS ratio (%)"
units_symbol = "%"
measured_number = 1.8

[[record]]
compound = "CCOc1cncc(-c2ccc(CN3CCN(c4ccc(C(=O)NS(=O)(=O)CCC(F)(F)F)nn4)CC3)cc2F)c1"
measured_property = "ASMS ratio (%)"
units_symbol = "%"
measured_number = 0.0

[[record]]
compound = "CCOc1cccc(C#Cc2cncc(C(=O)N3CCN(c4ccc(C(=O)NS(=O)(=O)CCC(F)(F)F)nn4)CC3)c2)c1"
measured_property = "ASMS ratio (%)"
units_symbol = "%"
measured_number = 0.0

[[record]]
compound = "CCOc1cccc(-c2cc(CN3CCN(c4ccc(C(=O)NS(C)(=O)=O)cc4)CC3)cc(OCC)c2)c1"
measured_property = "ASMS ratio (%)"
units_symbol = "%"
measured_number = 0.0

[[record]]
compound = "CCOc1cccc(-c2cc(OC)c(CN3CCN(c4ccc(C(=O)NS(C)(=O)=O)nn4)CC3)c(OC)c2)c1"
measured_property = "ASMS ratio (%)"
units_symbol = "%"
measured_number = 0.0

[[record]]
compound = "CCOc1cncc(-c2csc(C(=O)N3CCN(c4ccc(C(=O)NS(=O)(=O)C(C)(C)C)nn4)CC3)c2)c1"
measured_property = "ASMS ratio (%)"
units_symbol = "%"
measured_number = 0.0

[[record]]
compound = "CCOc1cncc(-c2cc(C(=O)N3CCN(c4ccc(C(=O)NS(=O)(=O)CCC(F)(F)F)nn4)CC3)cc(C(F)(F)F)c2)c1"
measured_property = "ASMS ratio (%)"
units_symbol = "%"
measured_number = 0.0

[[record]]
compound = "CCOc1cncc(-c2ccccc2CN2CCN(c3ccc(C(=O)NS(=O)(=O)c4ccc(NCCSc5ccccc5)c(C(F)(F)F)c4)nn3)CC2)c1"
measured_property = "ASMS ratio (%)"
units_symbol = "%"
measured_number = 21.4

[[record]]
compound = "CCOc1cncc(-c2ccc(C(=O)N3CCN(c4ccc(C(=O)NS(=O)(=O)C(C)(C)C)cc4)CC3)c3ccccc23)c1"
measured_property = "ASMS ratio (%)"
units_symbol = "%"
measured_number = 0.0

[[record]]
compound = "CCOc1cncc(-c2ccc(C(=O)N3CCN(c4ccc(C(=O)NS(=O)(=O)c5ccc(NCCSc6ccccc6)c(C(F)(F)F)c5)nn4)CC3)cc2C)c1"
measured_property = "ASMS ratio (%)"
units_symbol = "%"
measured_number = 0.0

[[record]]
compound = "CCOc1cncc(-c2ccccc2CN2CCN(c3ccc(C(=O)NS(C)(=O)=O)nn3)CC2)c1"
measured_property = "ASMS ratio (%)"
units_symbol = "%"
measured_number = 0.8

[[record]]
compound = "CCOc1cccc(-c2ccc(CN3CCN(c4ccc(C(=O)NS(=O)(=O)c5ccc(NCCSc6ccccc6)c(C(F)(F)F)c5)nn4)CC3)c3ccccc23)c1"
measured_property = "ASMS ratio (%)"
units_symbol = "%"
measured_number = "−3.5"

[[record]]
compound = "CCOc1cccc(C#Cc2ccccc2CN2CCN(c3ccc(C(=O)NS(C)(=O)=O)cc3)CC2)c1"
measured_property = "ASMS ratio (%)"
units_symbol = "%"
measured_number = 0.0

[[record]]
compound = "CCOc1cccc(-c2cnn(-c3cc(C(=O)N4CCN(c5ccc(C(=O)NS(C)(=O)=O)cc5)CC4)cc(C(F)(F)F)c3)c2)c1"
measured_property = "ASMS ratio (%)"
units_symbol = "%"
measured_number = 0.0

[[record]]
compound = "CCOc1cccc(-c2ccccc2CN2CCN(c3ccc(C(=O)NS(=O)(=O)c4ccc(NCCSc5ccccc5)c(C(F)(F)F)c4)nn3)CC2)c1"
measured_property = "ASMS ratio (%)"
units_symbol = "%"
measured_number = 14.3

[[record]]
compound = "CCOc1cncc(-c2csc(C(=O)N3CCN(c4ccc(C(=O)NS(=O)(=O)CCC(F)(F)F)nn4)CC3)c2)c1"
measured_property = "ASMS ratio (%)"
units_symbol = "%"
measured_number = 0.0

[[record]]
compound = "CCOc1cccc(-c2csc(CN3CCN(c4ccc(C(=O)NS(C)(=O)=O)cc4)CC3)c2)c1"
measured_property = "ASMS ratio (%)"
units_symbol = "%"
measured_number = 0.0

[[record]]
compound = "CCOc1cncc(C#Cc2cc(C(=O)N3CCN(c4ccc(C(=O)NS(=O)(=O)c5ccc(NCCSc6ccccc6)c(C(F)(F)F)c5)cc4)CC3)cc(C(F)(F)F)c2)c1"
measured_property = "ASMS ratio (%)"
units_symbol = "%"
measured_number = 3.4

[[record]]
compound = "CCOc1cncc(-c2cc(C(=O)N3CCN(c4ccc(C(=O)NS(=O)(=O)C(C)(C)C)nn4)CC3)cc(C(F)(F)F)c2)c1"
measured_property = "ASMS ratio (%)"
units_symbol = "%"
measured_number = "−1.9"

[[record]]
compound = "CCOc1cncc(-c2cc(CN3CCN(c4ccc(C(=O)NS(=O)(=O)c5ccc(NCCSc6ccccc6)c(C(F)(F)F)c5)cc4)CC3)cc(C(F)(F)F)c2)c1"
measured_property = "ASMS ratio (%)"
units_symbol = "%"
measured_number = 0.0

[[record]]
compound = "CCOc1cncc(-c2ccc(C(C)N3CCN(c4ccc(C(=O)NS(=O)(=O)CCC(F)(F)F)cc4)CC3)cc2)c1 (stereo not drawn)"
measured_property = "ASMS ratio (%)"
units_symbol = "%"
measured_number = 0.0

